Molecular target: T1, recombinant human GPC1 protein (R&D Systems) (human, UniProt P35052 24-530)
T1 construct: Bought recombinant protein (R&D Systems); also called human GPC-1 antigen; Glypican-1
T1 sequence: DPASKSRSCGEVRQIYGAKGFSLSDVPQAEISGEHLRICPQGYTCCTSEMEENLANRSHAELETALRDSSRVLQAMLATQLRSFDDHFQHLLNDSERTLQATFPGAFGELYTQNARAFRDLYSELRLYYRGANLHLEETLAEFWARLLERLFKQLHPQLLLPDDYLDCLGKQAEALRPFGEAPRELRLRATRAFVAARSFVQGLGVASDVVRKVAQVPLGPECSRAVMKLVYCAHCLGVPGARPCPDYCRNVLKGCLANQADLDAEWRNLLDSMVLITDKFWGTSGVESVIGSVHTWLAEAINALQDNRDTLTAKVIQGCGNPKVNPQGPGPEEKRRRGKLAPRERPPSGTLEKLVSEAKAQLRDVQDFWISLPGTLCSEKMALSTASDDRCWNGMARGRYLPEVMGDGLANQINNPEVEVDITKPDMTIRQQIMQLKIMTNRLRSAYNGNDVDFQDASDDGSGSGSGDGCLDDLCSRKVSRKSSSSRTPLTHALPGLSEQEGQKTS
Assay: SPR (Biacore 8K); antibody captured by anti-human IgG (Fc) on a CM5 chip, recombinant human GPC1 flowed over
endpoint: log10 of Kd (log10 of the value in nM)
Give log10 of Kd, with Kd taken in nM.

binder	value.reported
humanized anti-GPC1 antibody (clone T2) (antibody, human IgG4 S228P, kappa, V domains shown, IgG; also called humanized anti-GPC1 antibody (T2); unlabeled antibody) VH: QVQLVQSGAEVKKPGASVKVSCKASGYTFTGYYMHWVRQAPGQGLEWMGEINPSTGDTTYNQKFKARVTMTRDTSTSTVYMELSSLRSEDTAVYYCAREKRDDGVFAYWGQGTLVTVSS VL: DIVMTQSPSFLSASVGDRVTITCRASQGISSYLVWYQQKPGKPPKLLIYSASVLQSGVPSRFSGRGYGTDFTLTISSLQPEDFATYYCQQSFSIPPVTFGGGTKVEIKR	0.72
humanized anti-GPC1 monoclonal antibody clone T22 (antibody, human IgG4 S228P, kappa, V domains shown, IgG) VH: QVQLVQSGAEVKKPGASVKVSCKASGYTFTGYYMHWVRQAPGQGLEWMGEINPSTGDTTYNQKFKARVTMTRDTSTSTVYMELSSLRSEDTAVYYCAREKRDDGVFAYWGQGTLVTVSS VL: AIQMTQSPASLSASLGDRITITCRTSQTVAGYLNWYQQTPGNAPKLLIYSASNLQSGVPSRFSGSGSGRDFSLTISSLQSEDSATYYCQHSYSTPYTFGQGTKVEIKR	2.34
human/mouse chimeric anti-GPC1 antibody (clone 01a033) (antibody, human IgG4 S228P, kappa, V domains shown, also called chimeric mouse antibody (01a033); anti-GPC-1 chimeric antibody (01a033)) VH: QVQLKQSGPELVKPGASVKISCKASGYSFTGYYMHWVKQSPEKSLEWIGEINPSTGDTTYNQKFKAKATLTVDKSSSTAYMQLKSLTSEDSAVYYCAREKRDDGVFAYWGQGTLVTVSS VL: DIVMSQSPKSMSMSVGERVALSCKASENVGTYVSWYQQKPEQSPKLLIYGASNRYTGVPDRFTGSGSATDFTLTISSVQAEDLADYYCGQSYSYPLTFGAGTKLELKR	1.01
humanized anti-GPC1 monoclonal antibody clone T3 (antibody, human IgG4 S228P, kappa, V domains shown, IgG) VH: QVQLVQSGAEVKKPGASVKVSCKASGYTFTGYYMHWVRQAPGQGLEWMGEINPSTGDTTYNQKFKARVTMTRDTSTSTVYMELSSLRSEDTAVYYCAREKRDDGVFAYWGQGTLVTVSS VL: DIVMTQSPSSVSASVGDRVSITCRASEHINGWLAWYQQIPGKAPRILISSASILQSGAPSRFSGSGFGTDFTLTISSVQPEDFATYYCQQAKSYPLTFGGGTKVEIKR	0.49

Here's the next entry for you.
-- ask Data request, read-out log10 of Kd, for humanized anti-GPC1 monoclonal antibody clone T33 (antibody, human IgG4 S228P, kappa, V domains shown, IgG) VH: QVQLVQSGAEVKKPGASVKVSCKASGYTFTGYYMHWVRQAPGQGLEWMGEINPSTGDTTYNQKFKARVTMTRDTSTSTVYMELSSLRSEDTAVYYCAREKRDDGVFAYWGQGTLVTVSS VL: DVVMTQSPATLSVPPGDRATLSCRASQSVSSRLAWYQQKPGQAPKLLIYGASTRATGIPARFSGSWSGTEFTLTVSSLQSEDSAVYYCQQYNDWPRYTFGQGTKLEIKR
-- reply 2.66

From: patent US20230250188A1
